Numbers sourced from patent US11130741B2.

Below: a set of entries, each annotated with reported MIC.
system: A. baumannii ATCC 17978
Endpoint Name: MIC

# Compound, Result
rows = [
    ("O=C(/C=C/c1ccc(F)cc1)Nc1cc(C(F)(F)F)cc2c1Nc1ccccc1S2", "> 128 mg/L"),
    ("CCN(CC)c1ccc2c(c1)Sc1cc(C(F)(F)F)cc(NC3CCN(CCN)CC3)c1N2.Cl.Cl.Cl", "8 mg/L"),
    ("CC(C)NCCCN1c2ccccc2Sc2cc(-c3cc4ccccc4[nH]3)ccc21", "64 mg/L"),
    ("Nc1cc(C(F)(F)F)cc2c1N(CCCn1ccnc1)c1ccccc1S2", "> 128 mg/L"),
    ("Cl.Cl.NCCNCCC(=O)Nc1cc(C(F)(F)F)cc2c1Nc1ccc(N3CCCC3)cc1S2", "32 mg/L"),
    ("NC1CCCC(CNc2cc(C(F)(F)F)cc3c2Nc2ccccc2S3)C1 (centres unmarked)", "16 mg/L"),
    ("NCCCN1c2ccc(-c3cc4ccccc4[nH]3)cc2Sc2cc(C(F)(F)F)ccc21", "16 mg/L"),
    ("CC1CCCN(c2ccc3c(c2)Sc2cc(C(F)(F)F)cc(NC4CCN(CCN)CC4)c2N3)C1.Cl.Cl (centres unmarked)", "4 mg/L"),
    ("CC1(C)CCCN(c2ccc3c(c2)Sc2cc(C(F)(F)F)cc(NC4CCN(CCN)CC4)c2N3)C1.Cl.Cl", "4 mg/L"),
    ("CC1CCN(c2ccc3c(c2)Sc2cc(C(F)(F)F)cc(NC4CCN(CCN)CC4)c2N3)CC1.Cl.Cl", "8 mg/L"),
    ("Cl.NC1CCCC(CNc2cc(C(F)(F)F)cc3c2Nc2ccc(N4CCCC4)cc2S3)C1 (centres unmarked)", "8 mg/L"),
    ("CC1CC(C)CN(c2ccc3c(c2)Sc2cc(C(F)(F)F)cc(NC4CCN(CCN)CC4)c2N3)C1.Cl.Cl.Cl (centres unmarked)", "4 mg/L"),
    ("CN(C)CCCN1c2ccccc2Sc2cc(-c3cc4ccccc4[nH]3)ccc21", "64 mg/L"),
    ("CN(C)CCCN1c2ccccc2Sc2cc(-c3cc4cc(C#N)ccc4[nH]3)ccc21", "64 mg/L"),
]
